Hello, the source for this data is the supplement of paper PMC7125110, in case you need it.

In this section, each of the variants is paired with its reported self-cleavage kobs at 160 uM GlcN6P.
B1: glmS ribozyme (parent)
chain: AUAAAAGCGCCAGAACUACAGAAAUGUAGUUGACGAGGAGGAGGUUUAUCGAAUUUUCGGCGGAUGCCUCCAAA

- Variants of: B1
- protocolDescription: self-cleavage kobs at 160 uM GlcN6P; higher = faster cleavage; RNA array
- measurementConditions: with glucosamine-6-phosphate
Variants at the floor of the assay were thinned out.

                  mutationdescriptor  valuemeasured
0  A6U A14U G38U C50A G51U A53C G63A    < 1e-05 s⁻¹
1                          A14G C61G    < 1e-05 s⁻¹
2                          U45A G51A    < 1e-05 s⁻¹
3                          C34U G59C    < 1e-05 s⁻¹
4                          C34A A52G    < 1e-05 s⁻¹
5                          C70A C71G   3.29e-05 s⁻¹
6                          A42G A64G     0.0024 s⁻¹
7                     C11A G38A U45A    < 1e-05 s⁻¹
8           A14C C16A U31C G35C U55G    < 1e-05 s⁻¹
9                     G32U A48G G63C    < 1e-05 s⁻¹

Q. Give its self-cleavage kobs at 160 uM GlcN6P value. Item: A6U C8U C70U
A. < 1e-05 s⁻¹

Q. Give its self-cleavage kobs at 160 uM GlcN6P value. Item: U31A G41A
A. 8.73e-05 s⁻¹
